Origin of measurements: patent US20200140532A1

- assayed.system: T1, recombinant bovine Aggrecan G1-IGD-G2 (bovine, UniProt P13608 20-684, limits assumed)
- T1 construct: also called Bov G1-IGD-G2; Boy G1-IGD-G2
- assay.protocol: periplasmic extract ELISA
measured.parameter: OD 450 nm (OD 450 nm)
The response must be a number in OD 450 nm with no trailing unit.

{"columns": ["binder", "val"],
 "data": [
  ["C0101PMP601E08 (VHH, Tested as E. coli periplasmic extract; not shown: FLAG3 and His6 tags (phagemid pAX212)) VHH: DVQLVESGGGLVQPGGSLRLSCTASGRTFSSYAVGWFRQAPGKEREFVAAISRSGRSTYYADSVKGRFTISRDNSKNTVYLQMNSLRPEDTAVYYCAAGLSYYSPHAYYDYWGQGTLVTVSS", 1.68]
]}

Attention now shifts to the item below.
Would you kindly share the measured OD 450 nm for C0101PMP112A01 (VHH, Tested as E. coli periplasmic extract; not shown: FLAG3 and His6 tags (phagemid pAX212)) VHH: EVQLVESGGGLVQTGGSLRLSCVASGRAFSNYIMGWFRQAPGKERDFVAAINWNGVTTHYTDSVKGRFTISRDNAKSTSYLQMDSLKPDDTAVYFCAARGTVYSRTYGVSEEGYMYWGQGTQVTVSS ? 2.41
